Target: dsA2: HLA-A*02:01(Y84C/A139C) disulfide mutant heavy chain / β2m complex (Homo sapiens, UniProt P04439, D140Y/D185E/D98H/E176V/E277Q/G131W/G231S/I119V/I121R/I166T/I218V/L300P/L318F/N151K/N90K/P208A/P217A/Q86G/Q94H/R138H/R169H/T345S/A163C/Y108C)
Construct: made in house; host or cells: Escherichia coli (pET3a)
Assay: native mass spectrometry (nMS) of peptide binding to empty dsA2
Details: acceleration voltage 50 V, cone 150 V; ratio 1:5; raw data; mean of >=3 measurements
Ends that are not written are not given here.
QUANTITY: AUC dsA2/pep (%)
Dear colleague, please return just the value in %, with no unit written.

{"SUBSTANCE": "VPMVATV [VV7]", "AUC dsA2/pep, %": 3}

Reported AUC dsA2/pep of LVPMVATV [LV8] : 45

Reported AUC dsA2/pep of NLVPMV [NV6] : 4.1

Reported AUC dsA2/pep of PMVATV [PV6] : 5

Reported AUC dsA2/pep of NLVPMVA [NA7] : 12

Reported AUC dsA2/pep of GLGGGGGGV [GV9] : 35

Reported AUC dsA2/pep of YPNVNIHNF [YF9, reference compound] : 5

Reported AUC dsA2/pep of NLVPMVAT [NT8] : 23

---

Biological target: dsA2: HLA-A*02:01(Y84C/A139C) disulfide mutant heavy chain / β2m complex (Homo sapiens, UniProt P04439, D140Y/D185E/D98H/E176V/E277Q/G131W/G231S/I119V/I121R/I166T/I218V/L300P/L318F/N151K/N90K/P208A/P217A/Q86G/Q94H/R138H/R169H/T345S/A163C/Y108C)
Construct: made in house; host or cells: Escherichia coli (pET3a)
Assay: native mass spectrometry (nMS) of peptide binding to empty dsA2
Settings: acceleration voltage 10 V, cone 150 V; ratio 1:5; raw data; mean of >=3 measurements
Ends that are not written are not given here.
# AUC dsA2 (empty) listing for each entry below
Dear colleague, please return just the value in %, with no unit written.

{"SUBSTANCE": "PMVATV [PV6]", "UNITS OF MEASURE": "%", "AUC dsA2 (empty)": 68}
{"SUBSTANCE": "NLVPMVAT [NT8]", "UNITS OF MEASURE": "%", "AUC dsA2 (empty)": 47.3}
{"SUBSTANCE": "VPMVATV [VV7]", "UNITS OF MEASURE": "%", "AUC dsA2 (empty)": 61.8}
{"SUBSTANCE": "GLGGGGGGV [GV9]", "UNITS OF MEASURE": "%", "AUC dsA2 (empty)": 52}
{"SUBSTANCE": "NLVPMVA [NA7]", "UNITS OF MEASURE": "%", "AUC dsA2 (empty)": 75}

Reported AUC dsA2 (empty) of LVPMVATV [LV8] : 42

Reported AUC dsA2 (empty) of NLVPMV [NV6] : 66

---

# AUC dsA2 (empty) listing for each entry below
Molecular target: dsA2: HLA-A*02:01(Y84C/A139C) disulfide mutant heavy chain / β2m complex (Homo sapiens, UniProt P04439, D140Y/D185E/D98H/E176V/E277Q/G131W/G231S/I119V/I121R/I166T/I218V/L300P/L318F/N151K/N90K/P208A/P217A/Q86G/Q94H/R138H/R169H/T345S/A163C/Y108C)
Construct: made in house; host or cells: Escherichia coli (pET3a)
Assay: native mass spectrometry (nMS) of peptide binding to empty dsA2;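 further: native nano-electrospray MS on Q-Tof II in positive mode, dsA2 at 10 µM with peptide 50–200 µM, incubated ≥10 min on ice, argon collision gas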
Details: acceleration voltage 25 V, cone 150 V; ratio 1:5; raw data; mean of >=3 measurements
Ends that are not written are not given here.
Dear colleague, please return just the value in %, with no unit written.

Consider the following illustrative entries.
{"ITEM SEQUENCE": "NLVPMVAT [NT8]", "AUC dsA2 (empty), %": 50}
{"ITEM SEQUENCE": "YPNVNIHNF [YF9, reference compound]", "AUC dsA2 (empty), %": 51}

Next sequence, please.
Reported AUC dsA2 (empty) of GLGGGGGGV [GV9] : 50
